Tested on: E. coli BW25113 ΔtolC growth inhibition, OD615
Assay: growth inhibitors of E. coli tolC mutant, dose response, strain BW25113 ΔtolC::kan (AID 617);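 further: growth read after 20 h at 37 °C with compound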
pIC50: −log10 of the molar value.
Label true when pIC50 is at or above 5; anything below gets false.

Worked examples, 6 molecules total:
{"columns": ["Molecule", "Discrete Label"],
 "data": [
  ["Clc1ccc(OCCCc2nc(-c3cccnc3)no2)c(Cl)c1", "false"],
  ["COC(=O)c1ccc(Oc2nc(N3CCCCC3)nc(N3CCOCC3)n2)cc1", "false"],
  ["C=CCn1c(SCC(=O)Nc2ccc3c(c2)CCC3)nnc1-c1cccs1", "false"],
  ["Cc1ccc(NC(=O)CN(C)S(=O)(=O)c2cccc3nsnc23)cc1Cl", "false"],
  ["Cc1ccc(S(=O)(=O)N(Cc2ccc(F)cc2)Cc2ccco2)cc1", "true"],
  ["COc1ccc(OC)c(S(=O)(=O)N2CCN(c3c(C)cccc3C)CC2)c1", "false"]
]}

Exam item: decide whether the reported pIC50 for COc1ccc(-c2cc3nc4c(c(N5CCC6(CC5)OCCO6)n3n2)CCCC4)cc1 is at least 5. false

And then O=C(Nc1nc(-c2ccccn2)cs1)C1COc2ccccc2O1 (stereo unspecified) , what is it? true
